Hey, just so you know, these numbers are from patent US20260193226A1.

system: Alternaria solani; assay: Alternaria solani / tomato / leaf disc (early blight); type: in vivo; conditions: foliar, compared to untreated control
Recorded pest or weed control at 200 ppm by entry

A selection of reference data follows.
{"Compound": "CCCCCOC(=O)N1C[C@H](c2cnn(C)c2C)c2ccccc2[C@@H]1C (racemic) [Compound P-28]", "pest or weed control at 200 ppm": "≥ 80%"}
{"Compound": "Cc1c(C2CN(C(=O)CCc3ccc(Cl)cc3)Cc3ccccc32)cnn1C (stereo not drawn) [Compound P-22]", "pest or weed control at 200 ppm": "≥ 80%"}

# context switch: different compound, same pest or weed control at 200 ppm
**Query** // returns reported pest or weed control at 200 ppm for input Cc1c(C2CN(C(=O)CCc3ccc(F)cc3F)Cc3ccccc32)cnn1C (stereo not drawn) [Compound P-6]
**Result** ≥ 80%
